tested on: breast cancer cell line MX-1; assay: MX-1 cell line proliferation assay; format: cell-based; settings: MX-1 cells, 3-day proliferation assay, Cell Titer Glo; read-out: Cellular proliferation: EC50
pEC50: −log10 of the molar value.
Lab note: class by pEC50, see low (below 7), middle (7 to below 8), high (8 or more)

Solved cases below.
CCCCN1Cc2c[nH]c3c(=O)n(C)cc(c23)-c2cc(CS(C)(=O)=O)ccc21; high
Cn1cc2c3c(c[nH]c3c1=O)CN(c1ccc(C(F)(F)F)cn1)c1ccc(CS(C)(=O)=O)cc1-2; high
Cn1cc2c3c(c[nH]c3c1=O)C(c1ccc(-n3ccnc3)cc1)N(c1ccc(F)cc1F)c1ccc(CS(C)(=O)=O)cc1-2 (racemic); low
Cn1cc2c3c(c[nH]c3c1=O)C(CN1Cc3ccccc3C1=O)N(c1ccc(F)cc1F)c1ccc(CS(C)(=O)=O)cc1-2 (centres unmarked); low

QUERY: Assign a category based on measured pEC50 for Cn1cc2c3c(c[nH]c3c1=O)CN(c1ccc(F)cc1)c1ccc(S(C)(=O)=O)cc1-2 and give only the class name.
RESULT: high

QUERY: Assign a category based on measured pEC50 for Cn1cc2c3c(c[nH]c3c1=O)C(C(=O)NCc1ccccc1)N(c1ccc(F)cc1F)c1ccc(CS(C)(=O)=O)cc1-2 (racemic) and give only the class name.
RESULT: middle

* * *

test system: breast cancer cell line MX-1; experiment: MX-1 cell line proliferation assay; assay type: cell-based; settings: MX-1 cells, 3-day proliferation assay, Cell Titer Glo; read-out: Cellular proliferation: EC50
Property Label: EC50 (nM)
Hi! Could you send only the number? It should be in nM, unit omitted.

Cn1cc2c3c(c[nH]c3c1=O)CN(Cc1ccccn1)c1ccc(CS(C)(=O)=O)cc1-2 [Example 249]; 17.7
CCNC(=O)N1Cc2c[nH]c3c(=O)n(C)cc(c23)-c2cc(CS(C)(=O)=O)ccc21 [Example 45]; 141
Cn1cc2c3c(c[nH]c3c1=O)CN(CC(C)(C)CN1CCCC1)c1ccc(CS(C)(=O)=O)cc1-2 [Example 178]; 123
Cn1cc2c3c(c[nH]c3c1=O)CN(c1cncnc1)c1ccc(CS(C)(=O)=O)cc1-2 [Example 248]; 25.6

QUERY: Respond only with EC50 recorded for CCS(=O)(=O)c1ccc2c(c1)-c1cn(C)c(=O)c3[nH]cc(c13)CN2[C@H](C)c1ccccc1 [Example 265]
RESULT: 170

QUERY: Respond only with EC50 recorded for Cn1cc2c3c(c[nH]c3c1=O)C(CCCOc1ccccc1)N(c1ccc(F)cc1F)c1ccc(CS(C)(=O)=O)cc1-2 (single isomer, unassigned) [Example 144]
RESULT: 318

QUERY: Respond only with EC50 recorded for CC(=O)OCC(CCC1c2c[nH]c3c(=O)n(C)cc(c23)-c2cc(CS(C)(=O)=O)ccc2N1c1ccc(F)cc1F)OC(C)=O (stereo not shown) [Example 133]
RESULT: 204

* * *

test system: breast cancer cell line MX-1; assay: MX-1 cell line proliferation assay; type: cell-based; conditions: MX-1 cells, 3-day proliferation assay, Cell Titer Glo; read-out: Cellular proliferation: EC50
Classify: class 1 when EC50 is strictly less than 4 nM; class 0 when EC50 is not.

Cn1cc2c3c(c[nH]c3c1=O)CN(Cc1ccccc1OCc1ccccn1)c1ccc(CS(C)(=O)=O)cc1-2 [Example 264]; class 0
Cn1cc2c3c(c[nH]c3c1=O)CN(c1ncc(F)cn1)c1ccc(CS(C)(=O)=O)cc1-2 [Example 258]; class 0
CCOC(=O)N1Cc2c[nH]c3c(=O)n(C)cc(c23)-c2cc(F)cc(F)c21 [Example 173]; class 0
CCOC(=O)C1c2c[nH]c3c(=O)n(C)cc(c23)-c2cc(CS(C)(=O)=O)ccc2N1c1ccc(F)cc1 (centres unmarked) [Example 85]; class 0
Cn1cc2c3c(c[nH]c3c1=O)CN(c1ccc(F)cc1)c1ncc(F)cc1-2 [Example 32]; class 1

QUERY: Is the reported EC50 for CC(C)CN1Cc2c[nH]c3c(=O)n(C)cc(c23)-c2cc(CS(C)(=O)=O)ccc21 [Example 149] strictly below 4 nM?
RESULT: class 1

QUERY: Is the reported EC50 for Cn1cc2c3c(c[nH]c3c1=O)CN(CC1CC1)c1ccccc1-2 [Example 13] strictly below 4 nM?
RESULT: class 0

QUERY: Is the reported EC50 for CCCCNC(=O)C1c2c[nH]c3c(=O)n(C)cc(c23)-c2cc(CS(C)(=O)=O)ccc2N1c1ccc(F)cc1F (centres unmarked) [Example 157] strictly below 4 nM?
RESULT: class 0
